experiment_summary: Solubility in sodium phosphate buffer at pH 7.4
Type: physicochemical
measured_endpoint: solubility

molecule="CCC(C)[C@H](NC(=O)CCCNC(=O)NC12CC3CC(CC(C3)C1)C2)C(=O)O (stereo partly specified)" measured_endpoint=solubility recorded_measurement="> 500 µM"
molecule=CC(C)[C@H](NC(=O)CCCNC(=O)NC1CCCCC1)C(=O)O measured_endpoint=solubility recorded_measurement="> 500 µM"
molecule=O=C(O)CC[C@H](NC(=O)CCCNC(=O)NC1CCCCC1)C(=O)O measured_endpoint=solubility recorded_measurement="> 500 µM"
molecule=CC(C)[C@H](NC(=O)CNC(=O)NC1CCCCC1)C(=O)O measured_endpoint=solubility recorded_measurement="> 500 µM"
molecule=O=C(O)C[C@H](NC(=O)[C@H](Cc1ccccc1)NC(=O)CCCCCNC(=O)NC1CCCCC1)C(=O)O measured_endpoint=solubility recorded_measurement="> 500 µM"
molecule=CC(C)[C@H](NC(=O)CCCNC(=O)NC12CC3CC(CC(C3)C1)C2)C(=O)O measured_endpoint=solubility recorded_measurement="> 500 µM"
molecule=CSCC[C@H](NC(=O)CCCNC(=O)NC12CC3CC(CC(C3)C1)C2)C(=O)O measured_endpoint=solubility recorded_measurement="> 500 µM"
molecule=O=C(O)CC[C@H](NC(=O)CCCNC(=O)NC12CC3CC(CC(C3)C1)C2)C(=O)O measured_endpoint=solubility recorded_measurement="> 500 µM"
molecule=O=C(CCCCCNC(=O)NC1CCCCC1)N[C@@H](Cc1ccccc1)C(=O)N[C@@H](Cc1cnc[nH]1)C(=O)O measured_endpoint=solubility recorded_measurement="> 500 µM"
molecule=O=C(CCCNC(=O)NC12CC3CC(CC(C3)C1)C2)N[C@@H](Cc1ccccc1)C(=O)O measured_endpoint=solubility recorded_measurement="> 500 µM"
molecule=O=C(CCCCCNC(=O)NC1CCCCC1)N[C@@H](Cc1ccccc1)C(=O)N[C@@H](Cc1ccc(O)cc1)C(=O)O measured_endpoint=solubility recorded_measurement="> 500 µM"
molecule=CSCC[C@H](NC(=O)CCCCCNC(=O)NC12CC3CC(CC(C3)C1)C2)C(=O)O measured_endpoint=solubility recorded_measurement="> 500 µM"
molecule="CCC(C)[C@H](NC(=O)CCCCCNC(=O)NC12CC3CC(CC(C3)C1)C2)C(=O)O (stereo partly specified)" measured_endpoint=solubility recorded_measurement="> 500 µM"
molecule=NC(N)=NCCC[C@H](NC(=O)CNC(=O)NC1CCCCC1)C(=O)O measured_endpoint=solubility recorded_measurement="> 500 µM"
molecule=N=C(N)NCCC[C@H](NC(=O)[C@H](Cc1ccccc1)NC(=O)CCCCCNC(=O)NC1CCCCC1)C(=O)O measured_endpoint=solubility recorded_measurement="> 500 µM"
molecule=O=C(CCCCCNC(=O)NC12CC3CC(CC(C3)C1)C2)N[C@@H](Cc1cnc[nH]1)C(=O)O measured_endpoint=solubility recorded_measurement="> 500 µM"
molecule=O=C(CCCCCNC(=O)NC1CCCCC1)N[C@@H](Cc1cnc[nH]1)C(=O)O measured_endpoint=solubility recorded_measurement="> 500 µM"
molecule=N=C(N)NCCC[C@H](NC(=O)CCCNC(=O)NC1CCCCC1)C(=O)O measured_endpoint=solubility recorded_measurement="> 500 µM"
molecule=O=C(NCCCCCC(=O)N1CCC[C@H]1C(=O)O)NC12CC3CC(CC(C3)C1)C2 measured_endpoint=solubility recorded_measurement="> 500 µM"
molecule=O=C(CCCNC(=O)NC1CCCCC1)N[C@@H](Cc1cnc[nH]1)C(=O)O measured_endpoint=solubility recorded_measurement="> 500 µM"
molecule=CC(C)[C@H](NC(=O)CCCCCNC(=O)NC12CC3CC(CC(C3)C1)C2)C(=O)O measured_endpoint=solubility recorded_measurement="> 500 µM"
